Molecular target: IDH1 R132H (Homo sapiens, UniProt O75874, R132H)
Sequence (O75874 whole entry R132H): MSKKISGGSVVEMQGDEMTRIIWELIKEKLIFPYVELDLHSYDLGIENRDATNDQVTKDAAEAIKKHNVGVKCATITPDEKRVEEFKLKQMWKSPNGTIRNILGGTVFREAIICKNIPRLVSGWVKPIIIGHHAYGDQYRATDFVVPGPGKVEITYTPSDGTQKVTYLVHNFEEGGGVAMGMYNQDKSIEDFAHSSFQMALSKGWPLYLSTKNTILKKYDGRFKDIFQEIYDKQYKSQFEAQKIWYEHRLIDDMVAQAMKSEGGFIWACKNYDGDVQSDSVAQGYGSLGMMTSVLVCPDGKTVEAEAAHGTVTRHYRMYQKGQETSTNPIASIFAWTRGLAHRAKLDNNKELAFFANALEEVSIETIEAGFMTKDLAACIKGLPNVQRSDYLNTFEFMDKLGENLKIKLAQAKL
Test: IDH1 R132H enzymatic assay (NADPH depletion coupled to diaphorase/resazurin)
Format: biochemical
Conditions: IDH1 R132H enzymatic inhibition, IC50 class
pIC50: −log10 of the molar value.
pIC50 values by entry

Examples with their reported pIC50 follow.
| compound | recordedValue |
| --- | --- |
| CCc1cccc(CC)c1-n1c2c(cc(-c3nc(-c4cccc(OC)c4)cs3)c1=O)C(=O)CC(C)(C)C2 | < 4.70 |
| COc1ccccc1-n1c2c(cc(-c3nc(-c4ccc(Cl)cc4)cs3)c1=O)C(=O)CC(C)(C)C2 | 5.30 to 6.00 |

Inquiry: # input compound: `CCc1cccc(CC)c1-n1c(C)c(C(=O)N2CCN[C@H](C(=O)O)C2)cc(-c2nc(-c3ccc(Cl)cc3)cs2)c1=O` ; wanted: its pIC50
Reply text: 6.00 to 6.52

Inquiry: # input compound: CCc1cccc(CC)c1-n1c(CC(C)C)c(C(=O)N2CCNC(C(N)=O)C2)cc(-c2nc(-c3ccc(Cl)cc3)cs2)c1=O (stereo not shown) ; wanted: its pIC50
Reply text: 6.00 to 6.52

Inquiry: # input compound: CCc1cccc(CC)c1-n1c(CC(C)C)c(C(=O)N2CCNC(C(=O)OC)C2)cc(-c2nc(-c3ccc(Cl)cc3)cs2)c1=O (stereo not shown) ; wanted: its pIC50
Reply text: 5.30 to 6.00

Inquiry: # input compound: `CCc1cccc(CC)c1-n1c(C)c(C(=O)NC2CCCCC2)cc(-c2nc(-c3ccc(Cl)cc3)cs2)c1=O` ; wanted: its pIC50
Reply text: < 4.70

Inquiry: # input compound: `CCc1cccc(CC)c1-n1c(C)c(C(=O)NCCO)cc(-c2nc(-c3ccc(Cl)cc3)cs2)c1=O` ; wanted: its pIC50
Reply text: 6.00 to 6.52

----------
Target: IDH1 R132C (Homo sapiens, UniProt O75874, R132C)
Sequence (O75874 whole entry R132C): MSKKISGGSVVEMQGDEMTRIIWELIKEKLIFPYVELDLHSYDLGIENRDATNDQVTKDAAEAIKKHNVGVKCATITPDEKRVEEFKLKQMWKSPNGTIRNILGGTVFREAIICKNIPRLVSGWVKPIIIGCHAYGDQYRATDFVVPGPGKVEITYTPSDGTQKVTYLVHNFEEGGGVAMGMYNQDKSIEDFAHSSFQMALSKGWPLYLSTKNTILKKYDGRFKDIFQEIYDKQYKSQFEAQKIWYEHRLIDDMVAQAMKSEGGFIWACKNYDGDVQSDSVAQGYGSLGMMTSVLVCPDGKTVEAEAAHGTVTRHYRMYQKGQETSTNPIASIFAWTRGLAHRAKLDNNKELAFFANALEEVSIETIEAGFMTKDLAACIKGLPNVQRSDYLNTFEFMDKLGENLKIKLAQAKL
Assay: IDH1 R132C enzymatic assay (NADPH depletion coupled to diaphorase/resazurin)
Format: biochemical
Settings: IDH1 R132C enzymatic inhibition, IC50 class
property: IC50

Examples with their reported IC50 follow.
| molecule | IC50 |
| --- | --- |
| CCc1cccc(CC)c1-n1c(CC(C)C)c(C(=O)NCC(C)(C)O)cc(-c2nc(-c3ccc(Cl)cc3)cs2)c1=O [Compound 77] | < 0.3 µM |
| CCc1cccc(CC)c1-n1c(C)c(C(=O)N2CCC(C(=O)O)C2)cc(-c2nc(-c3ccc(Cl)cc3)cs2)c1=O (stereo not shown) [Compound 36] | > 20 µM |
| CCc1cccc(CC)c1-n1c(C)c(C(=O)NCc2ccccc2)cc(-c2nc(-c3ccc(Cl)cc3)cs2)c1=O [Compound 192] | 1 to 5 µM |

Inquiry: # input molecule: CCOC(=O)c1c(O)c(-c2nc(-c3ccc(Cl)cc3)cs2)c(=O)n(-c2c(CC)cccc2CC)c1C [Compound 347] ; wanted: its IC50
Reply text: 5 to 20 µM

Inquiry: # input molecule: CN1CCN(Cc2ccc(-n3c4c(cc(-c5nc(-c6ccc(Cl)cc6)cs5)c3=O)C(=O)CCC4)cc2)CC1 [Compound 360] ; wanted: its IC50
Reply text: > 20 µM

Inquiry: # input molecule: CCc1cccc(CC)c1-n1c(C=C(C)C)c(C(=O)N2CCNCC2)cc(-c2nn(-c3ccc(Cl)cc3)cc2Br)c1=O [Compound 363] ; wanted: its IC50
Reply text: 5 to 20 µM

Inquiry: # input molecule: CCc1cccc(CC)c1-n1c2c(cc(-c3nc(-c4ccc(C(=O)O)cc4)cs3)c1=O)C(=O)CC(C)(C)C2 [Compound 162] ; wanted: its IC50
Reply text: 5 to 20 µM

----------
Target: IDH1 R132C (Homo sapiens, UniProt O75874, R132C)
Assay: IDH1 R132C enzymatic assay (NADPH depletion coupled to diaphorase/resazurin)
Assay type: biochemical
Conditions: enzymatic inhibition, IDH1 R132C
property: IC50

| compound | IC50 |
| --- | --- |
| CCc1cccc(CC)c1-n1c(C=C(C)C)c(C(=O)N2CCNCC2)cc(-c2nn(-c3ccc(Cl)cc3)cc2C(F)(F)F)c1=O | 5 to 20 µM |
| CN1CCN(Cc2ccccc2-n2c3c(cc(-c4nc(-c5ccc(Cl)cc5)cs4)c2=O)C(=O)CC(C)(C)C3)CC1 | 5 to 20 µM |
| CCc1cccc(CC)c1-n1c(C=C(C)C)c(C(=O)N2CCNCC23COC3)cc(-c2nc(-c3ccc(Cl)cc3)cs2)c1=O | < 0.3 µM |
| CCc1cccc(CC)c1-n1c(C(C)OC)c(C(=O)N2CCNCC2)cc(-c2nc(-c3ccc(Cl)cc3)cs2)c1=O (stereo not drawn) | < 0.3 µM |
| Cc1nonc1-n1c2c(cc(-c3nc(-c4ccc(Cl)cc4)cs3)c1=O)C(=O)CC(C)(C)C2 | 1 to 5 µM |

Inquiry: # input compound: `Cc1[nH]c(=O)c(-c2nc(-c3ccc(Cl)cc3)cs2)cc1C(=O)N1CCNCC1` ; wanted: its IC50
Reply text: > 20 µM

Inquiry: # input compound: `CCc1cccc(CC)c1-n1c(C=C(C)C)c(C(=O)N2CCN(c3ccccc3C(F)(F)F)CC2)cc(-c2nc(-c3ccc(Cl)cc3)cs2)c1=O` ; wanted: its IC50
Reply text: 5 to 20 µM

Inquiry: # input compound: `CCc1cccc(OC(C)C)c1-n1c(C=C(C)C)c(C(=O)N2CCNCC2)cc(-c2nc(-c3ccc(Cl)cc3)cs2)c1=O` ; wanted: its IC50
Reply text: < 0.3 µM

Inquiry: # input compound: `CCc1cccc(CC)c1-n1c(CC2CCC2)c(C(=O)N2CCNCC2)cc(-c2nc(-c3ccc(Cl)cc3)cs2)c1=O` ; wanted: its IC50
Reply text: < 0.3 µM

----------
Biological target: IDH1 R132C (Homo sapiens, UniProt O75874, R132C)
Experiment: IDH1 R132C enzymatic assay (NADPH depletion coupled to diaphorase/resazurin)
Type: biochemical
Details: IDH1 R132C enzymatic inhibition, IC50 class
IC50 values by entry

Inquiry: Value wanted: IC50 (IDH1 R132C (Homo sapiens, UniProt O75874, R132C)) of entry `CCc1cccc(CC)c1-n1c(CC(C)C)c(C(=O)N2CCNCC2)cc(-c2nc(-c3ccc(Cl)cc3)co2)c1=O`
Reply text: 300 to 1000 nM

Inquiry: Value wanted: IC50 (IDH1 R132C (Homo sapiens, UniProt O75874, R132C)) of entry `CC1(C)CC(=O)c2cc(-c3nc(-c4ccc(Cl)cc4)cs3)c(=O)n(-c3ccccc3F)c2C1`
Reply text: 300 to 1000 nM

----------
Target: IDH1 R132C (Homo sapiens, UniProt O75874, R132C)
Experiment: IDH1 R132C enzymatic assay (NADPH depletion coupled to diaphorase/resazurin)
Assay type: biochemical
Conditions: IDH1 R132C enzymatic inhibition, IC50 class
pIC50: −log10 of the molar value.
property: pIC50

Examples with their reported pIC50 follow.
| compound | experimentalSystem | recordedValue |
| --- | --- | --- |
| CCc1cccc(CC)c1-n1c(CC(C)C)c(C(=O)NCC(O)c2ccccc2)cc(-c2nc(-c3ccc(Cl)cc3)cs2)c1=O (centres unmarked) | IDH1 R132C (Homo sapiens, UniProt O75874, R132C) | > 6.52 |
| COc1cccc(C(=O)O)c1-n1c2c(cc(-c3nc(-c4ccc(Cl)cc4)cs3)c1=O)C(=O)CC(C)(C)C2 | IDH1 R132C (Homo sapiens, UniProt O75874, R132C) | 5.30 to 6.00 |
| CC(C)=Cc1c(C(=O)N2CCNCC2)cc(-c2nc(-c3ccc(Cl)cc3)cs2)c(=O)n1-c1cc(C)cnc1OC(C)C | IDH1 R132C (Homo sapiens, UniProt O75874, R132C) | > 6.52 |

Inquiry: Value wanted: pIC50 (IDH1 R132C (Homo sapiens, UniProt O75874, R132C)) of entry `Cc1cc(CO)ccc1-n1c2c(cc(-c3nc(-c4ccc(Cl)cc4)cs3)c1=O)C(=O)CCC2`
Reply text: 4.70 to 5.30

Inquiry: Value wanted: pIC50 (IDH1 R132C (Homo sapiens, UniProt O75874, R132C)) of entry `CCc1cccc(CC)c1-n1c(CC(C)C)c(C(=O)N2CCNCC2)cc(-c2nc(-c3ccc(Cl)cc3)c(C3CC3)s2)c1=O`
Reply text: > 6.52

Inquiry: Value wanted: pIC50 (IDH1 R132C (Homo sapiens, UniProt O75874, R132C)) of entry `CCc1cccc(CC)c1-n1c(CC(C)C)c(C(=O)N2CCNCC2)cc(-c2nc(-c3ccc(OC)nc3)c(C)s2)c1=O`
Reply text: 6.00 to 6.52

Inquiry: Value wanted: pIC50 (IDH1 R132C (Homo sapiens, UniProt O75874, R132C)) of entry `COc1cc(C(=O)O)ccc1-n1c2c(cc(-c3nc(-c4ccc(Cl)cc4)cs3)c1=O)C(=O)CC(C)(C)C2`
Reply text: < 4.70

Inquiry: Value wanted: pIC50 (IDH1 R132C (Homo sapiens, UniProt O75874, R132C)) of entry `CCc1cccc(CC)c1-n1c2c(cc(-c3nc(-c4ccccn4)cs3)c1=O)C(=O)CC(C)(C)C2`
Reply text: 5.30 to 6.00

Inquiry: Value wanted: pIC50 (IDH1 R132C (Homo sapiens, UniProt O75874, R132C)) of entry `Cc1noc(-n2c3c(cc(-c4nc(-c5ccc(Cl)cc5)cs4)c2=O)C(=O)CC(C)(C)C3)c1C`
Reply text: 5.30 to 6.00

Inquiry: Value wanted: pIC50 (IDH1 R132C (Homo sapiens, UniProt O75874, R132C)) of entry `Cc1cc(C#N)c(-n2c3c(cc(-c4nc(-c5ccc(Cl)cc5)cs4)c2=O)C(=O)CC(C)(C)C3)s1`
Reply text: 6.00 to 6.52

Inquiry: Value wanted: pIC50 (IDH1 R132C (Homo sapiens, UniProt O75874, R132C)) of entry `CCc1cccc(CC)c1-n1c(CC(C)C)c(C(=O)N2CCNCC2)cc(-c2nc(-c3ccc(C)cc3)c(C)s2)c1=O`
Reply text: > 6.52

Inquiry: Value wanted: pIC50 (IDH1 R132C (Homo sapiens, UniProt O75874, R132C)) of entry `CCOc1ccc(Cl)cc1-n1c(C=C(C)C)c(C(=O)N2CCNCC2)cc(-c2nc(-c3ccc(C(F)F)cc3)cs2)c1=O`
Reply text: > 6.52

Inquiry: Value wanted: pIC50 (IDH1 R132C (Homo sapiens, UniProt O75874, R132C)) of entry `CCc1cccc(CC)c1-n1c(C)c(C(=O)NCCCO)cc(-c2nc(-c3ccc(Cl)cc3)cs2)c1=O`
Reply text: 6.00 to 6.52

Inquiry: Value wanted: pIC50 (IDH1 R132C (Homo sapiens, UniProt O75874, R132C)) of entry `CC(C)=Cc1c(C(=O)N2CCNCC2)cc(-c2nc(-c3ccc(Cl)cc3)cs2)c(=O)n1-c1c(Cl)cccc1OC(C)C`
Reply text: > 6.52

Values were extracted from patent US10703746B2.
